target entity: alpha-synuclein (natural human wildtype alpha-synuclein) (human, UniProt P37840 1-140)
run description: Biacore (SPR) full kinetic analysis
Some binders, each annotated with its measured Kd.
Entry rule: numbers only, all in nM.

[[record]]
binder = "Murine 1H7 (antibody, mouse IgG1, V domains shown, Mouse IgG1; also called m1H7; mouse 1H7) VH: VQLQQSGPELVKPGTSVKISCKASGYSFTSYYIHWVKQSPGQGLEWIGWIYPGSGNTKYSEKFKGKATLTADTSSSTAYMQLSSLTSEDSAVYFCARDGCYGFAYWGQGTLVTVS VL: DIVLTQSPASLAVSLGQRATISCKASQSVDYDGDSYMNWYQQKPGQPPKFLICAASNLESGIPARFSGSGSGTDFTLNIHPVEEEDAATYYCQQSNEDPFTFGSGTKLEIK"
measurement_kind = "Kd"
numeric_value = 9.5


Then this binder:
Could you tell me which Kd is on file for Humanized 1H7 H4L1 (Hu1H7VHv4-Hu1H7VLv1) (antibody, V domains shown) VH: QVQLVQSGAEVKKPGASVKVSCKASGYSFTSYYIHWVRQAPGQGLEWIGWIYPGSGNTKYSEKFKGRATLTADTSTSTAYMELRSLRSDDTAVYFCARDGSYGFAYWGQGTLVTVSS VL: DIQLTQSPSSLSASVGDRVTITCKASQSVDYDGDSYMNWYQQKPGKAPKFLICAASNLESGVPSRFSGSGSGTDFTLTISSLQPEDAATYYCQQSNEDPFTFGQGTKLEIK ?
33.9

Taken from patent US20130266517A1.
